Tested on: NOMO1
experimentalProtocol: cell viability relative to DMSO control; higher = less cytotoxic
assayContext: RPMI 5 mM glucose + 10% FBS; 48 h; 0.569 µM
measurementName: cell viability (%)

INSERT INTO assay_data (compound, resultnumber) VALUES
  ('O=C(/C=C/c1c(C(=O)[O-])[nH]c2cc(Cl)cc(Cl)c12)Nc1ccccc1', 107),
  ('Cc1nccn1CC1CCc2c(c3ccccc3n2C)C1=O (configuration not stated)', 111),
  ('Cc1cc(Nc2nc(N[C@@H](C)c3ncc(F)cn3)ncc2Cl)n[nH]1', 125),
  ('CC(=O)N1CCN(c2ccc(OCc3nn(C)c(C)c3-c3cccc4c(CCCOc5cccc6ccccc56)c(C(=O)O)n(Cc5cccnc5)c34)cc2)CC1', 127),
  ('Cn1cc(-c2ccc3nnc(C(F)(F)c4ccc5ncccc5c4)n3n2)cn1', 99.6),
  ('CCC(=O)OCC(=O)[C@@]1(OC(=O)CC)[C@@H](C)C[C@H]2[C@@H]3CCC4=CC(=O)C=C[C@]4(C)[C@@]3(F)[C@@H](O)C[C@@]21C', 116),
  ('CO[C@H]1C[C@@H]2CC[C@@H](C)[C@@](O)(O2)C(=O)C(=O)N2CCCC[C@H]2C(=O)O[C@H]([C@H](C)C[C@@H]2CC[C@@H](OC(=O)C(C)(CO)CO)[C@H](OC)C2)CC(=O)[C@H](C)/C=C(\C)[C@@H](O)[C@@H](OC)C(=O)[C@H](C)C[C@H](C)/C=C/C=C/C=C/1C', 110);
